- Tested System: human TLR8 (Homo sapiens)
- Sequence (Q9NR97 27-1041): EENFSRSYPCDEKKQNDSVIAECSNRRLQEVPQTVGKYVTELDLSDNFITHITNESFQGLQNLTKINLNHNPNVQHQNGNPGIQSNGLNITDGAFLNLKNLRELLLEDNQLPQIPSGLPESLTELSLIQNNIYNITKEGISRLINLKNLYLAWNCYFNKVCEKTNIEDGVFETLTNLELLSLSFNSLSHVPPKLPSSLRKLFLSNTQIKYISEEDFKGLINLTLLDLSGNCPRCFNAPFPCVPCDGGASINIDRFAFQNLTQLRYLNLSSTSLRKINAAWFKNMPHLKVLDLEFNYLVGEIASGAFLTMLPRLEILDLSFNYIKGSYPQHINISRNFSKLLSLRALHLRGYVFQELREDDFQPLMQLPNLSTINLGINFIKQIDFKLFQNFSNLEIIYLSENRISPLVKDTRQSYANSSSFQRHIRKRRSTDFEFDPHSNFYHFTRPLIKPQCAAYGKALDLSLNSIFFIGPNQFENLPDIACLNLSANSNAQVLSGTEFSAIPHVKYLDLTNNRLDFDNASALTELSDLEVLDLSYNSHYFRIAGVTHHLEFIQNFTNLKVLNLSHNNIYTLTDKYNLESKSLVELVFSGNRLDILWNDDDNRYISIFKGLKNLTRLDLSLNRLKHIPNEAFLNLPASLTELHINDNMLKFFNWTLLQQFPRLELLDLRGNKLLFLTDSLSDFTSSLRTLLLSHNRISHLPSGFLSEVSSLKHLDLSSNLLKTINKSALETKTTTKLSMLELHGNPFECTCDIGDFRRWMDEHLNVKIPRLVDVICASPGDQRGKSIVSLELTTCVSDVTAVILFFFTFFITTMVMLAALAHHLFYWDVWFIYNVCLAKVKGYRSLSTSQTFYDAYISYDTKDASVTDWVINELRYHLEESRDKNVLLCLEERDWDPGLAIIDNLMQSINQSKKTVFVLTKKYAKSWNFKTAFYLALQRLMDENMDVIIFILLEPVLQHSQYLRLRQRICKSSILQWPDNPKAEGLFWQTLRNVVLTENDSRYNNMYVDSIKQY
- Assay: TLR8 inhibition reporter assay (HEK-Blue cells, secreted embryonic alkaline phosphatase reporter)
- Protocol Conditions: HEK-Blue cells overexpressing human TLR8, stimulated with R848 15.9 μM; read-out: TLR 8 IC50
pIC50: −log10 of the molar value.
Please go through the items and note down their pIC50.

[[record]]
molecule = "CC(C)CN1C2CCC1CC(N1CCC(c3cc(F)c4c(c3)nc(-c3ccc(S(C)(=O)=O)cc3)n4C)CC1)C2 (stereo not shown) [Example 209]"
tested_system = "human TLR8 (Homo sapiens)"
reported_property = "pIC50"
experimental_result = 4.78

[[record]]
molecule = "COc1ccc(-c2nc3ccc(C4CCN(C5CCN(CC(C)C)CC5)CC4)cc3n2C(C)C)cc1OC"
tested_system = "human TLR8 (Homo sapiens)"
reported_property = "pIC50"
experimental_result = "< 4.30"

[[record]]
molecule = "COc1ccc(-c2nc3cc(C4CCN(C5CCN(C6CC6)CC5)CC4)ccc3n2C)cc1OC"
tested_system = "human TLR8 (Homo sapiens)"
reported_property = "pIC50"
experimental_result = "< 4.30"

[[record]]
molecule = "COc1ccc(-c2nc3c(C)cc(C4CCN(C5CC6(C5)CN(C5CCC5)C6)CC4)cc3n2C)cc1OC"
tested_system = "human TLR8 (Homo sapiens)"
reported_property = "pIC50"
experimental_result = "< 4.30"

[[record]]
molecule = "CC(C)CN1CCCC(N2CCC(c3cc(F)c4nc(-c5ccc(S(C)(=O)=O)cc5)n(C)c4c3)CC2)CC1 (stereo not shown) [Example 297]"
tested_system = "human TLR8 (Homo sapiens)"
reported_property = "pIC50"
experimental_result = "< 4.30"


Required: pIC50, one value per molecule below.
1. Cc1cc(-c2ccc(N3CCC(N(C)C)CC3)cc2)cc2c1nc(-c1ccc(S(C)(=O)=O)cc1)n2C
2. CC(C)N1C2CCC1CC(N1CCC(c3cc4c(cc3F)nc(-c3ccc(S(C)(=O)=O)cc3)n4C)CC1)C2 (single isomer, unassigned) [Example 98]

A.
[5.77, "< 4.30"]

###

- Tested System: human TLR9 (Homo sapiens, UniProt Q9NR96)
- Construct: host or cells: HEK-Blue cells (HEK293-derived reporter line)
- Sequence (Q9NR96 26-1032): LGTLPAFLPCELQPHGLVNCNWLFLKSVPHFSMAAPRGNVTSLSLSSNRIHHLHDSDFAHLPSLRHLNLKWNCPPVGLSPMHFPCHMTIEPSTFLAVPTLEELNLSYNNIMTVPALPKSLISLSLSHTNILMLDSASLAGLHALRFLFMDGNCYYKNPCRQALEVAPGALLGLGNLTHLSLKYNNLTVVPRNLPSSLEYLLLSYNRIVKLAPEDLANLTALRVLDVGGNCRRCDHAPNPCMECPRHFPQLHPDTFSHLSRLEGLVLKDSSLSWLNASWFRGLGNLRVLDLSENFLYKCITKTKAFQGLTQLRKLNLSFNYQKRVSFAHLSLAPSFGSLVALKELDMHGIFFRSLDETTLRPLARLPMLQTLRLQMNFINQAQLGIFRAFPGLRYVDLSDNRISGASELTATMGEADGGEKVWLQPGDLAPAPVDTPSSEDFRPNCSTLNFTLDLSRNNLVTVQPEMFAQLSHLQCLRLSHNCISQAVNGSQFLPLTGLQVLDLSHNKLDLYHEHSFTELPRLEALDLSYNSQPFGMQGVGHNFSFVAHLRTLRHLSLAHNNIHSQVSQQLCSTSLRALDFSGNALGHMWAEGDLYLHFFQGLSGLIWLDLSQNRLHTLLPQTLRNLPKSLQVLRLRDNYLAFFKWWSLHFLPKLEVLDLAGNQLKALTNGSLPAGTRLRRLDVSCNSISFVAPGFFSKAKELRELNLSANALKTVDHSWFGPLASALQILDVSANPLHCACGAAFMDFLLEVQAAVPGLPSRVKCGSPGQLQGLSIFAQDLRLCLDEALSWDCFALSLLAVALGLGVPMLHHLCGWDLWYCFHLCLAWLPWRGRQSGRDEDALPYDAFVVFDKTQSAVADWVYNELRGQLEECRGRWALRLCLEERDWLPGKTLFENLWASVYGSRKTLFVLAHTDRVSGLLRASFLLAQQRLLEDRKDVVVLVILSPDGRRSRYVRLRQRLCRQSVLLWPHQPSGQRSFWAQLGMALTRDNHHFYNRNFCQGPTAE
- Assay: TLR9 inhibition reporter assay (HEK-Blue cells, secreted embryonic alkaline phosphatase reporter)
- Format: cell-based
Give pIC50 for every item shown.
One number for each entry, as −log10 of the molar value.

Answered examples (5):
[[record]]
molecule = "CC(C)CN1C2CCC1CC(N1CCC(c3ccc4nc(-c5ccc(S(C)(=O)=O)cc5)[nH]c4c3F)CC1)C2 (single isomer, unassigned) [Example 220]"
reported_property = "pIC50"
experimental_result = 6.17

[[record]]
molecule = "COc1ccc(-c2nc3c(C)cc(C4CCN(C5CC6CCC(C5)N6C5CCC5)CC4)cc3n2C)cc1OC (centres unmarked) [Example 147]"
reported_property = "pIC50"
experimental_result = 6.70

[[record]]
molecule = "Cn1c(-c2ccc(S(C)(=O)=O)cc2)nc2cc(C3CCN(C4CC5CCC(C4)N5C4COC4)CC3)cc(F)c21 (single isomer, unassigned) [Example 213]"
reported_property = "pIC50"
experimental_result = 6.47

[[record]]
molecule = "COc1ccc(-c2nc3c(C)cc(C4CCN(C5CC6CCC(C5)N6C5CCOCC5)CC4)cc3n2C)cc1OC (single isomer, unassigned) [Example 166]"
reported_property = "pIC50"
experimental_result = 7.40

[[record]]
molecule = "Cc1cc(C2CCN(C3CC4(C3)CN(C3CCC3)C4)CC2)cc2c1nc(-c1ccc(S(C)(=O)=O)cc1)n2C"
reported_property = "pIC50"
experimental_result = 6.54


Each molecule below has a recorded value; state its pIC50.
1. Cn1c(-c2ccc(S(C)(=O)=O)cc2)nc2ccc(C3CCN(C4CC5CCC(C4)N5C4CCC4)CC3)c(F)c21 (single isomer, unassigned) [Example 271]
2. COCCN1CCN(c2ccc(-c3cc(C)c4nc(-c5ccc(S(C)(=O)=O)cc5)n(C)c4c3)cc2)CC1
3. Cn1c(-c2ccc(S(C)(=O)=O)cc2)nc2cc(C3CCN(C4CCN(C5COC5)CC4)CC3)cc(F)c21
4. COc1ccc(-c2nc3cc(F)c(C4CCN(C5CCN(C(C)C)CC5)CC4)cc3[nH]2)cc1OC

A.
6.39
5.96
6.08
6.72

I have 8 molecules here; please give me pIC50 for each one.
1. Cc1cc(C2CCN(C3CCCN(C(C)C)CC3)CC2)cc2c1nc(-c1ccc(S(C)(=O)=O)cc1)n2C (centres unmarked)
2. COc1ccc(-c2nc3c(C)cc(C4CCN(C5CC6CCC(C5)N6CC5CCC5)CC4)cc3n2C)cc1OC (single isomer, unassigned) [Example 150]
3. COc1ccc(-c2nc3c(C)cc(C4CCN(C5CC6CCC(C5)N6CC5CCC5)CC4)cc3n2C)cc1OC (single isomer, unassigned) [Example 151]
4. COCCN1C2CCC1CC(N1CCC(c3cc(C)c4nc(-c5ccc(S(C)(=O)=O)cc5)n(C)c4c3)CC1)C2 (single isomer, unassigned) [Example 162]
5. COCCN1C2CCC1CC(N1CCC(c3cc4nc(-c5ccc(S(C)(=O)=O)cc5)n(C)c4cc3F)CC1)C2 (centres unmarked) [Example 258]
6. COc1ccc(-c2nc3ccc(C4CCN(C5CCN(C(C)C)CC5)CC4)c(F)c3[nH]2)cc1OC
7. Cn1c(-c2ccc(S(C)(=O)=O)cc2)nc2cc(C3CCN(C4CCN(CC5COC5)CC4)CC3)cc(F)c21
8. Cc1cc(C2CCN(C3CCCN(C4CCC4)CC3)CC2)cc2c1nc(-c1ccc(S(C)(=O)=O)cc1)n2C (centres unmarked)

A.
7.68
7.49
6.77
7.21
7.00
6.70
6.11
7.64

Please supply pIC50 for each of the following items, keeping them in order.
1. Cn1c(-c2ccc(S(C)(=O)=O)cc2)nc2cc(C3CCN(C4CCN(C5CC5)CC4)CC3)cc(F)c21
2. COc1ccc(-c2nc3c(C)cc(C4CCN(C5CC6CCC(C5)N6C(C)C)CC4)cc3n2C)cc1OC (centres unmarked) [Example 144]

A.
[6.30, 7.21]

Batch request: pIC50 per item, same order as input.
1. COCCN1CCC(N2CCC(c3cc4c(cc3F)nc(-c3ccc(S(C)(=O)=O)cc3)n4C)CC2)CC1
2. COCCN1C2CCC1CC(N1CCC(c3ccc4c(nc(-c5ccc(S(C)(=O)=O)cc5)n4C)c3F)CC1)C2 (single isomer, unassigned) [Example 200]
3. Cn1c(-c2ccc(S(C)(=O)=O)cc2)nc2cc(F)c(C3CCN(C4CC5CCC(C4)N5CC4CC4)CC3)cc21 (centres unmarked) [Example 231]
4. Cc1cc(-c2ccc(N3CCN(CC4CCC4)CC3)cc2)cc2c1nc(-c1ccc(S(C)(=O)=O)cc1)n2C
5. COCCN1CCC(N2CCC(c3cc4nc(-c5ccc(S(C)(=O)=O)cc5)n(C)c4cc3F)CC2)CC1
6. Cc1cc(C2CCN(C3CC4CCC(C3)N4C3CCC3)CC2)cc2c1nc(-c1ccc(S(C)(=O)=O)cc1)n2C (single isomer, unassigned) [Example 153]
7. COc1ccc(-c2nc3c(F)cc(C4CCN(C5CCN(CC(C)C)CC5)CC4)cc3[nH]2)cc1OC

A.
6.39
6.42
7.24
5.74
6.40
6.92
7.51

###

- Tested System: human TLR7 (Homo sapiens)
- Sequence (Q9NYK1 27-1049): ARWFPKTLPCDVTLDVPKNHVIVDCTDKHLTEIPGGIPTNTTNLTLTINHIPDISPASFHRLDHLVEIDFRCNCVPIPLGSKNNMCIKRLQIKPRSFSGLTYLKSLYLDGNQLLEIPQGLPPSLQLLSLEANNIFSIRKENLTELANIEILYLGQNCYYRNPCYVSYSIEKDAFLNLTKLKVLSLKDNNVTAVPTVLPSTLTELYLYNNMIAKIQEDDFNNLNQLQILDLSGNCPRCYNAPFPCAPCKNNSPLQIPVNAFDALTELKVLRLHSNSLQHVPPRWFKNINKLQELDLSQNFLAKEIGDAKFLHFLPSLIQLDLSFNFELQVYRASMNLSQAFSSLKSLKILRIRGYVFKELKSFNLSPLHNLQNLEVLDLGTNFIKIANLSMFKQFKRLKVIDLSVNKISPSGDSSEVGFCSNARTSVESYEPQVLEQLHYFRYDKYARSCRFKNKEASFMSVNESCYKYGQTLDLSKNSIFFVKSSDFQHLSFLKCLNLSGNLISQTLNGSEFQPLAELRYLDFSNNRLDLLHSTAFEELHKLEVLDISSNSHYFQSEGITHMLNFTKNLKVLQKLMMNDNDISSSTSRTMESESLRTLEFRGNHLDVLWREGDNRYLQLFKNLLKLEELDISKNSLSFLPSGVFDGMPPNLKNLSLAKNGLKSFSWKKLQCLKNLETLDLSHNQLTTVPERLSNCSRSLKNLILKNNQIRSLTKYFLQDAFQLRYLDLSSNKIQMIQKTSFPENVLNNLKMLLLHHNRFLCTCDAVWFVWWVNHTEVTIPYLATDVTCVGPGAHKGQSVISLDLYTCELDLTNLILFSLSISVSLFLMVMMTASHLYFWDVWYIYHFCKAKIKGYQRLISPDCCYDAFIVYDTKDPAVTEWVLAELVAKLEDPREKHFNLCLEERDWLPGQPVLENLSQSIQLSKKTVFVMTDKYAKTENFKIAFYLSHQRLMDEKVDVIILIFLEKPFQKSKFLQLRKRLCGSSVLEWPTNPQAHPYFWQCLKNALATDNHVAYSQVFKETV
- Assay: TLR7 inhibition reporter assay (HEK-Blue cells, secreted embryonic alkaline phosphatase reporter)
- Protocol Conditions: HEK-Blue cells overexpressing human TLR7, stimulated with gardiquimod 7.5 μM; read-out: TLR 7 IC50
Reported Property: log10(IC50) (log10 of the value in µM)
Transform log10 | Measure IC50 | Unit µM

The examples below pair each entry with its known result.
[[record]]
compound = "Cn1c(-c2ccc(S(C)(=O)=O)cc2)nc2cc(C3CCN(C4CC5CCC(C4)N5C4CCC4)CC3)cc(F)c21 (single isomer, unassigned) [Example 215]"
reported_property = "log10(IC50)"
experimental_result = 1.23

[[record]]
compound = "CCn1c(-c2ccc(OC)c(OC)c2)nc2ccc(C3CCN(C4CCN(CC(C)C)CC4)CC3)cc21"
reported_property = "log10(IC50)"
experimental_result = 0.36


Required: log10(IC50), one value per compound below.
1. COc1ccc(-c2nc3c(C)cc(C4CCN(C5CCN(C(C)C)CC5)CC4)cc3n2C)cc1F
2. Cc1cc(C2CCN(C3CC4CCC(C3)N4CC3CC3)CC2)cc2c1nc(-c1ccc(S(C)(=O)=O)cc1)n2C (single isomer, unassigned)
3. CC(C)N1CCC(N2CCC(c3cc4c(cc3F)nc(-c3ccc(S(C)(=O)=O)cc3)n4C)CC2)CC1
4. Cn1c(-c2ccc(S(C)(=O)=O)cc2)nc2c(F)cc(C3CCN(C4CC5CCC(C4)N5C4COC4)CC3)cc21 (stereo not shown)
5. COc1cc(-c2nc3c(C)cc(C4CCN(C5CCN(CC(C)C)CC5)CC4)cc3n2C)cn2ncnc12

A.
1. 0.94
2. 0.95
3. 0.86
4. 1.46
5. -1.00

Sourced from patent US12492188B2
